- targetOrTestSystem: Torsin-1A-interacting protein 2 (Homo sapiens)
- test: small molecules binding lysate-expressed LULL1 – cell lysate, human LULL1 lysate, 635/667 nm fluorescence, primary screen (AID 1092);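 also: probe is lysate of COS7 cells overexpressing human LULL1; score merges per-feature 667 nm fluorescence with signal-to-noise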
- conditionSummary: small-molecule microarray, hLULL1 lysate binding, 635 nm fluorescence; higher = more signal
experimentalEndpoint: composite z-score

[[record]]
smi = "C=CCN1C(=O)[C@]2(O[C@H](CCO)[C@@H]([Si](C)(C)c3ccc(OC)cc3)[C@@H]2C)c2cc(N(C=O)c3ccccc3)ccc21"
experimentalendpoint = "composite z-score"
measuredvalue = 1.19

[[record]]
smi = "COC(=O)[C@@]1(Cc2ccc(OC)cc2)[C@H]2c3cc(C(=O)N(C)C)n(Cc4ccc(C(F)(F)F)nc4)c3C[C@H]2CN1C(=O)c1ccccc1"
experimentalendpoint = "composite z-score"
measuredvalue = 2.17

[[record]]
smi = "[N-]=[N+]=Nc1ccccc1C[C@]1(C(=O)NCc2ccccc2)N=C(c2ccc(OCCCO)cc2)O[C@H]1c1ccccc1N=[N+]=[N-]"
experimentalendpoint = "composite z-score"
measuredvalue = 2.53

[[record]]
smi = "COc1ccc([Si](C)(C)[C@@H]2[C@@H](CC(=O)N3Cc4ccccc4C[C@H]3CO)O[C@]3(C(=O)N(Cc4cccc(N5CCC5=O)c4)c4ccccc43)[C@H]2C)cc1"
experimentalendpoint = "composite z-score"
measuredvalue = 1.95


* * *

- test: growth of efflux-deficient E. coli DRC39 – strain DRC39, OD650, 24 h, E. coli filamentation inducers, primary screen (AID 1178);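 also: growth measured as culture turbidity by optical density at 650 nm; test concentration not given here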
- conditionSummary: E. coli DRC39 acrAB, higher = more signal, called active from +8 up or from −8 down
# maps each entry to its z-score
experimentalEndpoint: z-score

[[record]]
molecule = "CC(C)NC(=O)[C@@H]1c2ccccc2C(=O)N(C(C)C)[C@H]1c1ccc(CO)cc1"
measuredvalue = 0.494

[[record]]
molecule = "COC(=O)c1c(CC[C@@H](CO)NC(=O)N[C@@H](Cc2ccccc2)Cn2cc(-c3ccccn3)nn2)oc(C(=O)N2CCOCC2)c1C(=O)OC"
measuredvalue = 0.506

[[record]]
molecule = "O=C1C2C=CC(C(O)C=Cc3ccc([N+](=O)[O-])cc3)N(Nc3ccccc3F)C2C(=O)N1c1ccccc1 (centres undefined)"
measuredvalue = -0.388

[[record]]
molecule = "[N-]=[N+]=Nc1ccccc1[C@H]1OC(c2ccc(OCCCO)cc2)=N[C@@]1(Cc1ccccc1)C(=O)N1CCOCC1"
measuredvalue = 0.226


* * *

- test: binders from COS7 lysate, DM2A8 probe, primary screen, torsin A project, cell lysate, small-molecule microarray, fluorescence 635/667 (AID 1065)
- conditionSummary: higher = more signal, COS7 lysate expressing mutant human TOR1A
# label = class 1 if composite z-score >= 0.4 else class 0

[[record]]
molecule = "CC(=O)NCCCC[C@@H]1NC(=O)[C@H]2C[C@@H](C(=O)O)[C@@H](c3ccc(O)cc3)N2C1=O"
label = "class 1"

[[record]]
molecule = "COCC(=C=CC[C@H](O)c1cccc(OCCO)c1)C[C@H](O)c1cc(Cl)cc(Cl)c1O"
label = "class 0"

[[record]]
molecule = "CCOC(=O)C1=CC[C@@H](c2ccc(C(F)(F)F)cc2)N(S(=O)(=O)c2ccc(C)cc2)[C@H]1c1ccccc1"
label = "class 1"

[[record]]
molecule = "O=C1NC(=O)C2C1C=CC(C(O)C=Cc1ccc([N+](=O)[O-])cc1)N2Nc1ccc(Cl)cc1Cl (centres undefined)"
label = "class 1"

[[record]]
molecule = "Cc1ccc(S[C@]2(C(=O)O)CC(=O)N(Cc3ccccc3C(F)(F)F)[C@@H]2c2ccc(CO)cc2I)cc1"
label = "class 1"

[[record]]
molecule = "CCOC(=O)C1=CC[C@H]2C(=O)N(c3ccccc3)C(=O)[C@@H]12"
label = "class 1"

[[record]]
molecule = "CC(C)=CCCC(C)=CC(O)C1C=CC2C(=O)N(c3ccccc3)C(=O)C2N1Nc1ccc(C(C)C)cc1 (centres undefined)"
label = "class 0"

[[record]]
molecule = "CC(C)[C@@H](C(=O)O)n1cc(C2(O)CCCCC2)nn1"
label = "class 0"

[[record]]
molecule = "CC#CC(=O)Oc1ccc(Br)cc1C=CC(=O)OCC"
label = "class 0"

[[record]]
molecule = "CC1CC/C=C\\[C@H]2OC34C=CCN(c5ccc6ccccc6c5)C(=O)[C@H]3N(CCO)C(=O)[C@@H]4C2C(=O)O1 (some centres undefined)"
label = "class 0"

[[record]]
molecule = "O=C1N(CCS(=O)(=O)c2ccccc2)c2ccccc2[C@@H]2OC(c3ccc(OCCCO)cc3)=N[C@]12Cc1ccccc1"
label = "class 1"

[[record]]
molecule = "NC(=O)NCC#Cc1ccc2c(c1)[C@]1(C(=O)N2)[C@H](C(=O)O)[C@H]2C(=O)O[C@H](c3ccccc3)[C@H](c3ccccc3)N2[C@@H]1c1ccc(O)cc1"
label = "class 0"

[[record]]
molecule = "[N-]=[N+]=NCc1ccccc1C[C@@]1(C(=O)NCC(O)CO)N=C(c2ccc(OCCCO)cc2)O[C@@H]1c1ccccc1 (some centres undefined)"
label = "class 0"


* * *

- test: probe aNog binding to arrayed compounds – biochemical, biotinylated probe, 635/667 nm fluorescence, primary screen (AID 1115);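 also: probe is biotinylated aNog protein used at 0.15 µg/mL for 1 h at 4 C; z-score combines 667 nm fluorescence of each spot with its signal to noise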
- conditionSummary: small-molecule microarray, higher = more signal
Each item that follows carries a reported composite z-score.
experimentalEndpoint: composite z-score

[[record]]
compound = "Cc1ccc(S(=O)(=O)N2C[C@@H](C(=O)O)[C@H](Sc3ccccc3)C[C@H]2c2ccccc2)cc1"
measuredvalue = 1.45

[[record]]
compound = "[N-]=[N+]=NCc1ccccc1[C@@H]1OC(c2ccc(OCCCO)cc2)=N[C@]1(CCS(=O)(=O)c1ccccc1)C(=O)N1CCOCC1"
measuredvalue = 0.113

[[record]]
compound = "O=C1NC(=O)C2C1C=CC(C(O)C1CC=CCC1)N2Nc1ccccn1 (centres undefined)"
measuredvalue = -0.0852

[[record]]
compound = "COC(=O)[C@@]1(Cc2ccc(OC)cc2)[C@H]2c3cc(C(=O)N4CCCC4)n(CCSCCO)c3C[C@H]2CN1C(=O)c1ccccc1"
measuredvalue = 2.04


* * *

- test: probe aLefty1 binding on compound microarray – biochemical, small-molecule microarray, 635/667 nm fluorescence, primary screen (AID 1153);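 also: score merges spot fluorescence with signal-to-noise ratio from the scanned slide images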
- conditionSummary: higher = more signal
Recorded composite z-score, one value per entry.
experimentalEndpoint: composite z-score

[[record]]
compound = "CC(C)CN1C(=O)[C@@]2(c3ccc([N+](=O)[O-])cc3)CC(=O)N(C3CCCCC3)[C@@H]2c2ccc(CO)cc21"
experimentalendpoint = "composite z-score"
measuredvalue = -0.191

[[record]]
compound = "O=C1O[C@@H](c2ccccc2)[C@@H](c2ccccc2)N2[C@@H](c3ccccc3OCCO)[C@]3(C(=O)Nc4ccccc43)[C@@H](C(=O)O)[C@H]12"
experimentalendpoint = "composite z-score"
measuredvalue = -0.518

[[record]]
compound = "COC(=O)C(CC#Cc1ccc2c(c1)[C@]1(C(=O)N2)[C@H](c2ccccc2OCCO)N2[C@H](c3ccccc3)[C@H](c3ccccc3)OC(=O)[C@H]2[C@@H]1C(N)=O)C(=O)OC"
experimentalendpoint = "composite z-score"
measuredvalue = 1.81

[[record]]
compound = "NC(=O)[C@@]1(Cc2ccccc2)N=C(c2ccc(OCCCO)cc2)O[C@H]1c1ccccc1"
experimentalendpoint = "composite z-score"
measuredvalue = 0.232

[[record]]
compound = "O=C1NC(=O)C2C1C=CC(C(O)c1ccc(I)cc1)N2Nc1ccc(Cl)cc1Cl (centres undefined)"
experimentalendpoint = "composite z-score"
measuredvalue = 0.618

[[record]]
compound = "C=C(C)[C@@H]1CC=C(C(O)C2C=CC3C(=O)NC(=O)C3N2Nc2ccc(Cl)cc2Cl)CC1 (some centres undefined)"
experimentalendpoint = "composite z-score"
measuredvalue = 0.266

[[record]]
compound = "C#CCNCc1ccccc1"
experimentalendpoint = "composite z-score"
measuredvalue = -0.235

[[record]]
compound = "COCCOC(=O)N1C(=O)[C@@]2(c3cc(C#CCCO)ccc31)[C@H](c1ccc(O)cc1)N1[C@H](c3ccccc3)[C@H](c3ccccc3)OC(=O)[C@H]1[C@@H]2C(=O)N1CCN(c2ncccn2)CC1"
experimentalendpoint = "composite z-score"
measuredvalue = 1.97

[[record]]
compound = "C#CCN1[C@@H](Cc2ccc(O)cc2)C(=O)O[C@H](Cc2ccccc2)[C@@H]1/C=C/C1CC1"
experimentalendpoint = "composite z-score"
measuredvalue = -0.196

[[record]]
compound = "CCCC=C(CCC)[C@@H](NC(=O)OCC(C)C)c1ccccc1"
experimentalendpoint = "composite z-score"
measuredvalue = 2.47

[[record]]
compound = "C=C(/C(=C/C[C@H](OC(C)=O)c1ccc(OCCO)cc1)c1cc(C(=O)OC)ccc1OC)C(C)C"
experimentalendpoint = "composite z-score"
measuredvalue = 0.0844

[[record]]
compound = "C=C(CCCC)/C(=C/C[C@@H](OC(C)=O)c1ccccc1OCCO)c1cc(C(=O)OC)ccc1OC"
experimentalendpoint = "composite z-score"
measuredvalue = -0.239

[[record]]
compound = "COCC(=C=CC[C@H](O)c1ccccc1OCCO)CCO"
experimentalendpoint = "composite z-score"
measuredvalue = -0.206

[[record]]
compound = "CC(C)=CCCC(C)=CC(O)C1C=CC2C(=O)N(c3ccccc3)C(=O)C2N1Nc1ccc(C(C)C)cc1 (centres undefined)"
experimentalendpoint = "composite z-score"
measuredvalue = 0.201

[[record]]
compound = "O[C@@H](Cc1ccccc1)[C@@H](/C=C/C1CC1)NCc1cccc(Cl)c1"
experimentalendpoint = "composite z-score"
measuredvalue = -0.0295

[[record]]
compound = "COc1cc(CO)cc(I)c1O[C@H]1C=C(C(=O)NCCO)C[C@@H](N(C(=O)c2cc3ccccc3oc2=O)C2CCCCCC2)[C@@H]1O"
experimentalendpoint = "composite z-score"
measuredvalue = -0.0646

[[record]]
compound = "C=CC[C@]1(C(N)=O)COC(c2ccc(OCCCO)cc2)=N1"
experimentalendpoint = "composite z-score"
measuredvalue = 0.269

[[record]]
compound = "COc1ccc([C@H]2OC[C@@H]3CCC(=O)N32)cc1"
experimentalendpoint = "composite z-score"
measuredvalue = 0.0868

[[record]]
compound = "COc1ccc([Si](C)(C)[C@H]2[C@H](CC(=O)N3CCC[C@H]3CO)O[C@@]3(C(=O)N(Cc4cccc(N5CCOC5=O)c4)c4ccccc43)[C@@H]2C)cc1"
experimentalendpoint = "composite z-score"
measuredvalue = -0.017


Where do these numbers come from? They come from PubChem BioAssay.
